Can you tell me MIC50 for the items I'm about to list?
system: Escherichia coli; experiment: Antimicrobial activity against extended-spectrum-beta-lactamase producing Escherichia coli isolates; assay type: functional
Write the number in µg/mL without appending the unit.

Q: Report MIC50 for C[C@H]1[C@H](NC(=O)/C(=N\OC(C)(C)C(=O)O)c2csc(N)n2)C(=O)N1S(=O)(=O)O (stereo in doubt)
A: 256

Q: Report MIC50 for CO/N=C(\C(=O)N[C@@H]1C(=O)N2C(C(=O)[O-])=C(C[N+]3(C)CCCC3)CS[C@H]12)c1csc(N)n1 [CEFEPIME]
A: 16

Q: Report MIC50 for C[C@@H](O)[C@H]1C(=O)N2C(C(=O)O)=C(S[C@@H]3CN[C@H](C(=O)N(C)C)C3)[C@H](C)[C@H]12
A: 0.03

Q: Report MIC50 for CC(C)(O/N=C(\C(=O)N[C@@H]1C(=O)N2C(C(=O)[O-])=C(C[n+]3ccccc3)CS[C@H]12)c1csc(N)n1)C(=O)O
A: 256

---

tested on: Klebsiella pneumoniae; assay: Antimicrobial activity against extended-spectrum-beta-lactamase producing Klebsiella pneumoniae isolates; type: functional
measurement_kind: MIC50 (µg/mL)
Write the number in µg/mL without appending the unit.

Q: Report MIC50 for CO/N=C(\C(=O)N[C@@H]1C(=O)N2C(C(=O)[O-])=C(C[N+]3(C)CCCC3)CS[C@H]12)c1csc(N)n1 [CEFEPIME]
A: 1

Q: Report MIC50 for C[C@H]1[C@H](NC(=O)/C(=N\OC(C)(C)C(=O)O)c2csc(N)n2)C(=O)N1S(=O)(=O)O (stereo in doubt)
A: 256

Q: Report MIC50 for C[C@H]1COc2c(N3CCN(C)CC3)c(F)cc3c(=O)c(C(=O)O)cn1c23.C[C@H]1COc2c(N3CCN(C)CC3)c(F)cc3c(=O)c(C(=O)O)cn1c23.O
A: 2

---

Can you tell me MIC50 for the items I'm about to list?
test system: Escherichia coli; assay: Antimicrobial activity against extended-spectrum-beta-lactamase producing Escherichia coli isolates; type: functional
Write the number in µg/mL without appending the unit.

Q: Report MIC50 for CO[C@@]1(NC(=O)Cc2cccs2)C(=O)N2C(C(=O)O)=C(COC(N)=O)CS[C@@H]21
A: 2

Q: Report MIC50 for NCC[C@H](O)C(=O)N[C@@H]1C[C@H](N)[C@@H](O[C@H]2O[C@H](CN)[C@@H](O)[C@H](O)[C@H]2O)[C@H](O)[C@H]1O[C@H]1O[C@H](CO)[C@@H](O)[C@H](N)[C@H]1O
A: 2

Q: Report MIC50 for CO/N=C(\C(=O)N[C@@H]1C(=O)N2C(C(=O)O)=C(COC(C)=O)CS[C@H]12)c1csc(N)n1
A: 256

---

system: Klebsiella pneumoniae; experiment: Antimicrobial activity against extended-spectrum-beta-lactamase producing Klebsiella pneumoniae isolates; type: functional
measurement_kind: MIC50 (µg/mL)
Write the number in µg/mL without appending the unit.

Q: Report value only: MIC50, Klebsiella pneumoniae, C[C@@H](O)[C@H]1C(=O)N2C(C(=O)O)=C(SCCNC=N)C[C@H]12 [IMIPENEM ANHYDROUS]
A: 0.25

Q: Report value only: MIC50, Klebsiella pneumoniae, NCC[C@H](O)C(=O)N[C@@H]1C[C@H](N)[C@@H](O[C@H]2O[C@H](CN)[C@@H](O)[C@H](O)[C@H]2O)[C@H](O)[C@H]1O[C@H]1O[C@H](CO)[C@@H](O)[C@H](N)[C@H]1O [AMIKACIN]
A: 2

Q: Report value only: MIC50, Klebsiella pneumoniae, CO/N=C(\C(=O)N[C@@H]1C(=O)N2C(C(=O)O)=C(COC(C)=O)CS[C@H]12)c1csc(N)n1 [CEFOTAXIME]
A: 8

Q: Report value only: MIC50, Klebsiella pneumoniae, CO[C@@]1(NC(=O)Cc2cccs2)C(=O)N2C(C(=O)O)=C(COC(N)=O)CS[C@@H]21 [CEFOXITIN]
A: 2

Q: Report value only: MIC50, Klebsiella pneumoniae, O=C(O)c1cn(C2CC2)c2cc(N3CCNCC3)c(F)cc2c1=O [CIPROFLOXACIN]
A: 2

Q: Report value only: MIC50, Klebsiella pneumoniae, C[C@@H](O)[C@H]1C(=O)N2C(C(=O)O)=C(S[C@@H]3CN[C@H](C(=O)N(C)C)C3)[C@H](C)[C@H]12 [MEROPENEM]
A: 0.03

Q: Report value only: MIC50, Klebsiella pneumoniae, CC(C)(O/N=C(\C(=O)N[C@@H]1C(=O)N2C(C(=O)[O-])=C(C[n+]3ccccc3)CS[C@H]12)c1csc(N)n1)C(=O)O [CEFTAZIDIME]
A: 256

---

tested on: Escherichia coli; assay: Antimicrobial activity against extended-spectrum-beta-lactamase producing Escherichia coli isolates; assay type: functional
Can you tell me MIC90 for the items I'm about to list?
Write the number in µg/mL without appending the unit.

Q: Report MIC90 for CC(C)(O/N=C(\C(=O)N[C@@H]1C(=O)N2C(C(=O)[O-])=C(C[n+]3ccccc3)CS[C@H]12)c1csc(N)n1)C(=O)O
A: 256

Q: Report MIC90 for CO/N=C(\C(=O)N[C@@H]1C(=O)N2C(C(=O)[O-])=C(C[N+]3(C)CCCC3)CS[C@H]12)c1csc(N)n1 [CEFEPIME]
A: 256

Q: Report MIC90 for C[C@@H](O)[C@H]1C(=O)N2C(C(=O)O)=C(S[C@@H]3CN[C@H](C(=O)N(C)C)C3)[C@H](C)[C@H]12
A: 0.25

Q: Report MIC90 for NCC[C@H](O)C(=O)N[C@@H]1C[C@H](N)[C@@H](O[C@H]2O[C@H](CN)[C@@H](O)[C@H](O)[C@H]2O)[C@H](O)[C@H]1O[C@H]1O[C@H](CO)[C@@H](O)[C@H](N)[C@H]1O
A: 8

Q: Report MIC90 for C[C@H]1[C@H](NC(=O)/C(=N\OC(C)(C)C(=O)O)c2csc(N)n2)C(=O)N1S(=O)(=O)O (stereo in doubt)
A: 256

Q: Report MIC90 for CO/N=C(\C(=O)N[C@@H]1C(=O)N2C(C(=O)O)=C(COC(C)=O)CS[C@H]12)c1csc(N)n1
A: 256

---

system: Escherichia coli; assay: Antimicrobial activity against extended-spectrum-beta-lactamase producing Escherichia coli isolates; type: functional
measurement_kind: MIC90

Q: Report MIC90 for C[C@H]1COc2c(N3CCN(C)CC3)c(F)cc3c(=O)c(C(=O)O)cn1c23.C[C@H]1COc2c(N3CCN(C)CC3)c(F)cc3c(=O)c(C(=O)O)cn1c23.O
A: ≥ 32 µg/mL

Q: Report MIC90 for O=C(O)c1cn(C2CC2)c2cc(N3CCNCC3)c(F)cc2c1=O
A: ≥ 16 µg/mL

Q: Report MIC90 for CO[C@@]1(NC(=O)Cc2cccs2)C(=O)N2C(C(=O)O)=C(COC(N)=O)CS[C@@H]21
A: ≥ 64 µg/mL

src = ChEMBL document CHEMBL1143836
